# Tested on: TK-10
# Experimental protocol: NCI tumour cell line growth inhibition, 48 h
Calls of active or inactive are those of the source. No stated cut-off is given here; in the data, active = GI50 up to about 1.1 µM and inactive = higher.
Outcomes: Yes = active, No = inactive

> print(dat)
                                    compound  measured.target  cat
 1  COc1ccc(C(OCC2OC(n3cc(C)c(=O)[nH]c3=O)CC2n2cc(Cn3cc(Br)c(=O)[nH]c3=O)nn2)(c2ccccc2)c2ccccc2)cc1 (stereo not given)            TK-10   No
 2  CC1CC(C)CC(C)C(O)/C(C#N)=C/C=C/CC(C2CCCC2C(=O)O)OC(=O)CC(O)C(C)C1 (stereo not given)            TK-10  Yes
 3  CC1(c2cccc(C(F)(F)F)c2)CC(c2cccc(C(F)(F)F)c2)=C(C#N)C(=C(C#N)C#N)N1 (stereo not given)            TK-10   No
 4  CC1CNC(c2ccc(COc3ccc(C4=NC(C)CN4)cc3)cc2)=N1 (stereo not given)            TK-10   No
 5  CC(=O)OCC1OC(n2c(C)c(/N=N/c3ccc(Cl)cc3)c(C)c(C#N)c2=S)C(OC(C)=O)C(OC(C)=O)C1OC(C)=O (stereo not given)            TK-10   No
 6  COC(=O)C(=O)C(C(=O)C(=O)Nc1ccccc1C(=O)OC)c1nc2ccc(C(=O)c3ccccc3)cc2nc1O (stereo not given)            TK-10   No
 7  O=CC(O)C(O)C(O)COc1cc(CO)cc2c1C(=O)c1ccccc1C2=O (stereo not given)            TK-10   No
 8      Clc1ccc2c(NCCCC/N=C/c3ccccc3)ccnc2c1            TK-10   No
 9  CCCCOC(=O)C(O)Cc1ccoc1 (stereo not given)            TK-10   No
10  C=C[C@@H](C)[C@H](NS(=O)(=O)c1ccc(C)cc1)C(=O)OCC            TK-10   No
11  Cc1cc(S(=O)(=O)[N-]/C(=N/S(=O)(=O)c2cc(Cl)sc2Cl)[n+]2ccc(N(C)C)cc2)c(S)cc1Cl            TK-10   No
12  COc1ccc(CNc2nc(NCc3ccc(OC)c(OC)c3)nc(NC3CCCCC3)n2)cc1            TK-10   No
13  COc1cc2c(cc1OCCCCCOc1cc3c(cc1OC)C(=O)N1CCC[C@H]1C(=O)N3)N=C[C@@H]1CCCN1C2=O            TK-10  Yes
14  CCOC(=O)CC[C@@H](NC(=O)c1ccc(NCc2ccc3nc(OC)c(OC)nc3c2)cc1)C(=O)OCC            TK-10   No
15   C[n+]1c2ccc(Cl)cc2nc2cc(-c3ccccc3)ccc21            TK-10   No
16  CC(=O)c1cccc(NC(=O)C(=O)NNc2nnc(S)n2N)c1            TK-10   No
17                 O=c1cnc2cc3ccccc3cc2[nH]1            TK-10   No
18         CCOc1ccccc1NC(=O)CCc1n[nH]c(=S)o1            TK-10   No
19  COCOCC1CCCN1CN1CCC[C@H]1COCOC (stereo not given in full)            TK-10   No
20   O=C(O)c1ccc(Nc2nc3ccccc3nc2-c2cccs2)cc1            TK-10   No
